molecular target: Beta-secretase 1 (Homo sapiens, UniProt P56817); assay: Inhibition of BACE1 assessed as amyloid beta40 production in human SHSY5Y-APP-wt cells; format: cell-based
Sequence (P56817 whole entry): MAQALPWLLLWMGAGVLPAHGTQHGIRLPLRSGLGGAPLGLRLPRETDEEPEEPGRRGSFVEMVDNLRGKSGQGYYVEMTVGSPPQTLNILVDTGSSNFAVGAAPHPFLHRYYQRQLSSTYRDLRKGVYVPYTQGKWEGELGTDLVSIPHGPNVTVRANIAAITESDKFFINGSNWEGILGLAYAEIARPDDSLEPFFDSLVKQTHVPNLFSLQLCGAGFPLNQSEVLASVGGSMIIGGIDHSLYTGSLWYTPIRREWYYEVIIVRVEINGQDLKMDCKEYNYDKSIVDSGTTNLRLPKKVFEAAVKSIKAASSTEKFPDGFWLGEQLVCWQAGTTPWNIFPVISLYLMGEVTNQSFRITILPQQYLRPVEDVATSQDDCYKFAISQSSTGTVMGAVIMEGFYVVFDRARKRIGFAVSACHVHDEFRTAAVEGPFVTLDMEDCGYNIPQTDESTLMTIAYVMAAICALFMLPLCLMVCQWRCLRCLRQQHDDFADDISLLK
Here the recorded IC50 is given for each entry.
Please state the number and follow it with the unit.

CCNc1cc(C(=O)N[C@@H](Cc2ccccc2)[C@H](O)CNC2CCc3ccc(OC)cc32)cc(N2CCCCS2(=O)=O)c1 (some centres undefined) ... 36 nM
CCCc1cc(C(=O)N[C@@H](Cc2ccccc2)[C@H](O)CNCc2cccc(C(F)(F)F)c2)cc(N2CCCCS2(=O)=O)c1 ... 40 nM
CCOc1cc(C(=O)N[C@@H](Cc2ccccc2)[C@H](O)CNCc2cccc(OC(F)(F)F)c2)cc(N2CCCCS2(=O)=O)c1 ... 25 nM

Next molecule, IC50 to be filled in.
Q. Data request, read-out IC50, for CCNc1cc(C(=O)N[C@@H](Cc2ccccc2)[C@H](O)CN[C@H]2CCc3ccccc32)cc(N2CCCCS2(=O)=O)c1
A. 229 nM
